// reported MTT per item
system: cellular dehydrogenase activity; details: composite Z-score vs DMSO; Conc 20 μM
Structures can show the parent of a compound that is named as a salt.
Please give the numeric answer without any surrounding text.

Below, 5 compounds whose answers are already recorded.
{"columns": ["COMPOUND", "MTT"],
 "data": [
  ["CC(C)=CCc1c(O)cc2occ(-c3ccc4c(c3)OCO4)c(=O)c2c1O", "−0.499"],
  ["O=c1cc(-c2ccc(O)cc2)oc2cc(O[C@@H]3O[C@H](CO)[C@@H](O)[C@H](O)[C@H]3O)cc(O)c12", "−0.801"],
  ["N=C(N)N.N=C(N)N.O=C(O)O [guanidine carbonate]", "−0.683"],
  ["COc1ccc(-c2coc3c(O)c(OC)ccc3c2=O)cc1", "−0.627"],
  ["CCN(CCCc1ccccc1)CCCc1ccccc1 [alverine citrate]", "−0.018"]
]}

Specify MTT for CC[C@H]1OC(=O)[C@H](C)[C@@H](O[C@H]2C[C@@](C)(OC)[C@@H](O)[C@H](C)O2)[C@H](C)[C@@H](O[C@@H]2O[C@H](C)C[C@H](N(C)C)[C@H]2O)[C@](C)(OC)C[C@@H](C)C(=O)[C@H](C)[C@@H](O)[C@]1(C)O and stop.
−1.086

Specify MTT for O[C@H]1[C@H](O)[C@@H](O)C2OC[C@H]1O2 [anhydroglucose] and stop.
0.041

Specify MTT for CC(=O)OCC(=O)[C@@]1(O)[C@H](C)C[C@H]2[C@@H]3CCC4=CC(=O)C=C[C@]4(C)[C@@]3(F)[C@@H](O)C[C@@]21C [dexamethasone acetate] and stop.
0.058

Specify MTT for Oc1ccc([C@H]2Oc3cc(O)cc(O)c3C[C@H]2O)cc1 [(2R,3R)-(−)-epiafzelechin] and stop.
−0.486

Specify MTT for CC[C@@H](C)C(=O)O[C@H]1[C@H](O)[C@H]2[C@@H](CN3C[C@@H](C)CC[C@H]3[C@@]2(C)O)[C@@H]2C[C@]34O[C@]5(O)[C@@H](OC(=O)[C@](C)(O)[C@@H](C)O)CC[C@@]3(C)[C@@H]5[C@@H](OC(C)=O)[C@@H](OC(C)=O)[C@H]4[C@@]21O (stereo in doubt) and stop.
0.904

Specify MTT for O=c1c2ccccc2oc2ccc(O)cc12 [2-hydroxyxanthone] and stop.
−1.863

Specify MTT for C=C1CCC2C(CC2(C)C)C(=O)CCC1O (stereo not shown) and stop.
−0.507

Specify MTT for COc1cc(-c2coc3cc(OCc4ccccc4)c(OC)c(O)c3c2=O)cc(OCc2ccccc2)c1OC and stop.
−0.793

Specify MTT for N=C(N)N/N=C/c1c(Cl)cccc1Cl and stop.
−0.886

Specify MTT for NC[C@@H]1O[C@H](O[C@H]2[C@@H](O)[C@H](O[C@@H]3[C@@H](O)[C@H](N)C[C@H](N)[C@H]3O[C@H]3O[C@H](CN)[C@@H](O)[C@H](O)[C@H]3N)O[C@@H]2CO)[C@H](N)[C@@H](O)[C@@H]1O and stop.
−1.478

Specify MTT for O=C(O)c1cc(O)c2c(c1)[C@H]([C@H]1c3cc(C(=O)O)cc(O)c3C(=O)c3c(O[C@@H]4O[C@H](CO)[C@@H](O)[C@H](O)[C@H]4O)cccc31)c1cccc(O[C@@H]3O[C@H](CO)[C@@H](O)[C@H](O)[C@H]3O)c1C2=O [sennoside A] and stop.
−0.769

Specify MTT for COC(=O)[C@]1(C)CC[C@]2(C)CC[C@]3(C)C4=CC=C5C(=CC(=O)C(O)=C5C)[C@]4(C)CC[C@@]3(C)[C@@H]2C1 and stop.
−6.164

Specify MTT for CC(=O)O[C@@H]1C[C@H]2C(C)(C)C(=O)C=C[C@]2(C)[C@H]2CC[C@]3(C)C(=CC(=O)O[C@H]3c3ccoc3)[C@@]21C and stop.
−0.532

Specify MTT for CCCCCC1C(=O)CCC1CC(=O)OC (stereo not shown) [dihydrojasmonic acid, methyl ester] and stop.
−0.452

Specify MTT for CC(=O)[C@@]1(O)CC[C@H]2[C@@H]3C=C(Cl)C4=CC(=O)[C@@H]5C[C@@H]5[C@]4(C)[C@H]3CC[C@@]21C and stop.
0.079

Specify MTT for CC1(C)O[C@@H]2C[C@H]3[C@@H]4CCC5=CC(=O)CC[C@]5(C)[C@@]4(F)[C@@H](O)C[C@]3(C)[C@]2(C(=O)CCl)O1 [halcinonide] and stop.
−0.789

Specify MTT for CN1CCc2cc3c(cc2[C@H]1[C@@H]1OC(=O)c2c1ccc1c2OCO1)OCO3 [(+)-bicuculline] and stop.
−0.812
